B1: TPR 5TU (parent)
chain: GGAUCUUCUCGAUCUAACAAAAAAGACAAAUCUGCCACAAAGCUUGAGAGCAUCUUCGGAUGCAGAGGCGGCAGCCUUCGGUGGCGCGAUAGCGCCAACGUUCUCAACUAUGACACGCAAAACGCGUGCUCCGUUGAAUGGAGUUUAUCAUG

- Variants of: B1
- Measurement protocol: polymerase ribozyme fitness, log enrichment relative to wild type (log ratio); higher = more active; in vitro selection for triplet polymerase activity
This sample holds only a part of the variants without activity.
# if value of polymerase ribozyme fitness (log ratio) reaches -3, tag yes; if it stays below, tag no

Input: Confirm if polymerase ribozyme fitness (log ratio) reported for the variant C93U C116U A122U is -3 or above.
Output: yes

Input: Next record, please: A24U C96G
Output: yes

Input: Also check A21U U78C G86C U148A
Output: no

Input: # iterate: C103G G128C
Output: no

Input: Same question, A19G A29U C95U A122G this time
Output: no

Input: And C10A A22U A24G A40C A52C C57U G70A C93U A147C ?
Output: no

Input: // next record G50C A52G C57U C93A
Output: no

Input: Now the same for A91C U139G
Output: no

Input: Okay, and A49U G136A G141A ?
Output: yes

Input: Next variant up: G25U A26C A49G U61A C76U U104A C114U A119C
Output: no

Input: Here is the next variant: C18U A20U C103A G124A
Output: no

Input: And `A106C` ?
Output: yes

Input: Moving on to the next variant: A41U G74A G94C
Output: no

Input: Now this one: A16U U53A C75A C93A C103G U130A
Output: no

Input: Now consider C8G U15G A21G G83U A91G C105U U144C U148A and answer again.
Output: no

Input: Can you check C51U G88U U90C G94A C95U A147G next?
Output: no

Input: Subsequent entry: U7G A22G C32U G59C U77G C114U U145A
Output: no

Input: Thanks! And G42U U53C C95G ?
Output: no

Input: Similarly, G50A A106G C118U ?
Output: yes

Input: Let us now turn to A12U A20U G81A C87A C96A U102C C125U
Output: no

Input: Would you kindly repeat that for C38U C69G C95U A122C ?
Output: yes

Input: Continue with C10U U15A A23U C32A C51U U55G U111G
Output: no

Input: Another variant: A3C C18U A49U G62C A66C G67U C96A C99G U134C U145C A147C U151G
Output: no

Input: Also check C75G A89U C93G U104G A147C
Output: no

Input: Now give it for G84A A91U G126U G143U too.
Output: no

Input: Moving on to A49C G81U G84U C125G G141C A150U
Output: no

Input: Okay, and C51U U61C C76U G94C A121U C125G U145A ?
Output: no

Input: Next: A52C G84U
Output: yes

Input: A29U C51G G58C G71A A91G C95A C103G U151A G152A , same question.
Output: no

Input: Can you check G59A C125A next?
Output: yes

Input: Repeat for the following variant: G62U G94U C96U
Output: no

Input: What do you get for U55A U61A C79A G83A U90G G143A ?
Output: no

Input: # iterate: G34U C54U U78G G83A C108G
Output: no

Input: Also, C27G G48C G80A G81A A113G C118A C132U G136C A150G please.
Output: no

Input: Also G11C C14G C87A A121C U144A ?
Output: no

Input: // query: C54U G58C C85A
Output: yes

Input: C54U G84A A110U ?
Output: no

Input: Now give it for C85G C93U C116U U127G too.
Output: no

Input: Here is the next variant: U53G C96A U104G
Output: no

Input: And the next one, U90C C99G A138G ?
Output: no

Input: Another: G94U C114G C116U
Output: no

Input: Request: C27U G92U G100A A106C G124C A138G
Output: no

Input: Cool, now A3U G62U G94A
Output: yes

Input: What do we get for U4G A41C G48C A60U A97G A107U ?
Output: no

Input: Try A30C G50C A66G G128U next.
Output: no

Input: Moving on to the next variant: C14G C87G A107G
Output: no

Input: Input U4C G48A
Output: yes

Input: // repeat for A12U C54U U134A U145G and report
Output: no

Input: Follow-up item: U56C C85A C131G
Output: no

Input: How about this variant: A20U A52U C76A C93A
Output: no

Input: And then U45A G67C G84U C108U A120U , what is it?
Output: no

Input: And then C125A A147U , what is it?
Output: yes

Input: Next variant up: G88C U101C A113C U139G
Output: no

Input: Next variant: C36U A39U
Output: yes

Input: Same read-out for U55G G81A G141C U146G ?
Output: yes

Input: Next variant up: U77C C87G A142G
Output: no

Input: Repeat for the following variant: A22U A47C C54G G58U
Output: yes

Input: Try this variant next: U4G A89C C131A
Output: no

Input: Also C75G C85G A147U , if possible.
Output: no

Input: // repeat for A41U C93A A122G and report
Output: no

Input: And for C35U A49G G50A U77G C96U G143C A150G U151A ?
Output: no

Input: What would you report for `A12C` ?
Output: yes

Input: Now this one: A24C G74C U90G C99G U127A
Output: no

Input: Next variant up: A12G U78C U139G
Output: yes

Input: Item: A20U A49C G58C C87U
Output: no

Input: Can you handle A21U A40U C85U G141A next?
Output: yes

Input: Can you check C103G A121G next?
Output: yes

Input: Also, G84A C99U G100U U144A please.
Output: no

Input: Try this variant next: C5G C35U G50A U55A C57A A66C C87A U134C
Output: no

Input: Also C57U C87U C116U C118U A119C G136A , if possible.
Output: yes

Input: Proceed to A24U U82G G83C
Output: yes

Input: Param item: A22C C27U A52C
Output: yes

Input: Queued: U44A C76U G86U A121U
Output: no

Input: Entry to check: C27G U45A G48U A91C
Output: no

Input: For C75U G94C A122G U145A then?
Output: no

Input: Try this variant too: A49C U77G G94C
Output: no

Input: Here is the next variant: U31C C38G A47G C51A U56A G83C U146C U148C
Output: no

Input: Now consider G117U G143U .
Output: yes

Input: Also U33G G86U ?
Output: no

Input: Now try C54A U101A .
Output: yes

Input: Also C69U G94C ?
Output: yes

Input: How about U15C A16G G59U A60G G92A C116U ?
Output: yes

Input: And for A26U A37C A47G C85U U90A U145A U146C ?
Output: no

Input: Do the same for A3C U6G G46C C75A C79A G86A C103G G126U please
Output: no

Input: Same again, this time with U13G G92C
Output: yes

Input: Another variant to check: G59C C99G G141U
Output: yes

Input: For C35U G50A C87G G124A then?
Output: no

Input: // query: A21G U82A C96A U101G A121U
Output: yes

Input: Here is the next variant: C35G U55G G67A G92U
Output: no
